measured target: Gal(b1-4)Glc6S
assay info: glycan array binding signal (z-score within array); higher = stronger binding
condition label: glycan notation: IUPAC condensed, linker removed
Many of the other results were omitted from the sample, so the strongest signals are more common in it than they were.
quantity: glycan array binding signal (z-score)

{"binder": "Epa1 (Candida glabrata) (protein) MGSSHHHHHHSSGLVPRGSHMTSSNDISLASKDPTTFPLGCSPDITTPKKGLSMELYSYDFRKKGSYPCWDAAYLDPNYPRTGYKSHRLLAKVDGVTGNINFYYHATKGCTPQLGHLPASYNYPKPLTMTNFTMLLYGYFRPKVTGFHTFTISADDLLFVNFGAGNAFDCCRRDSSADHFGNYQAYAIWGSKTAKDELTVHLDAGVYYPIRLFYNNREYDGALSFTFKTESNENTVSDFSEYFFSLDDTEEGCPGLISYD", "recorded result": 0.304}
{"binder": "RfpC (Mycobacterium tuberculosum), O07747 (protein) MHHHHHHSSGRENLYFQGHMASKSAMAAGLVTASMSLSTAVAHAGPSPNWDAVAQCESGGNWAANTGNGKYGGLQFKPATWAAFGGVGNPAAASREQQIAVANRVLAEQGLDAWPTCGAASGLPIALWSKPAQGIKGS", "recorded result": 4.01}
{"binder": "CVNH3T (Magnaporthe grisea) (protein) GSHIGPYGNYAGNFSGSSRDICLDGARLRAECRRGDGGYSTSVIDLNRYLSNDNGHFRWVSGGGGGGGTATVTVQQGDTLRDIGRRFDCDFHEIARRNNIQNEDLIYPGQVLQVPTKGGSGGGAGNFWDSARDVRLVDGGKVLEAELRYSGGWNRSRIYLDEHIGNRNGELIHC", "recorded result": -0.229}
{"binder": "Epa13 (Candida glabrata) (protein) MGSSHHHHHHSSGLVPRGSHMASDSSENGYAHGCSPSIRAKLKPGLSMEIYSYALRPTDDHCWDSAYLDPMFPRTGYLTHKLLGKAEGIIGPLNFLAKNPACIPAVSTLPLAFHFPKPFTITNFTMLLYGYLSPKKTGKYTFKLLADDLLLMNFGADNAFDCCSHDATKDNIGEYVAYSVWPGVNKNVTVYLESGIYYPLRLFFNNRDAIAQLDFAYYFNDSPIRQTDFSGMFFSIPDSVKCPANI", "recorded result": 0.255}
